- testSystem: Cytochrome P450 2C9 (Homo sapiens)
- Sequence (P11712 whole entry): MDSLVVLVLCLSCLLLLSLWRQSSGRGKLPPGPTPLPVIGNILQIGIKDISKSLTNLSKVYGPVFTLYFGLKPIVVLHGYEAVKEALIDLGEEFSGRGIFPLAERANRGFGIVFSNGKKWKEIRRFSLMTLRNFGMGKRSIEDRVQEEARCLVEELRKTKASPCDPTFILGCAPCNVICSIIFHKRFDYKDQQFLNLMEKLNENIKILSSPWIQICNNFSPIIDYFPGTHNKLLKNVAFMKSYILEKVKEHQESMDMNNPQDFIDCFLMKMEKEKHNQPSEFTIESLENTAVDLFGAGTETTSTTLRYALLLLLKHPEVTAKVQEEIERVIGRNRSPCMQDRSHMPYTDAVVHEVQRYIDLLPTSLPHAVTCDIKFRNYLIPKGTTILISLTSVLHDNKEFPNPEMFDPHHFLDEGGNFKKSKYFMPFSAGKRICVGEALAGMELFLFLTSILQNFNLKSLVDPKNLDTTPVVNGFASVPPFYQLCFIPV
- assayProcedure: Inhibition of CYP2C9
Can you tell me EC50 for the items I'm about to list?

Br.CC(=O)SCC(=O)c1ccc(NS(=O)(=O)c2ccc(OCCCN(C)C)cc2)nc1 ... > 50 µM

Query molecule follows.
Quick check: EC50 of CC(=O)SCC(=O)c1ccc(NS(=O)(=O)c2ccc3c(c2)COOC3)nc1 ?
10 µM

* * *

Exercise: for every item that follows, state its recorded EC50.
- testSystem: Cytochrome P450 2D6 (Homo sapiens, UniProt P10635)
- Sequence (P10635 whole entry): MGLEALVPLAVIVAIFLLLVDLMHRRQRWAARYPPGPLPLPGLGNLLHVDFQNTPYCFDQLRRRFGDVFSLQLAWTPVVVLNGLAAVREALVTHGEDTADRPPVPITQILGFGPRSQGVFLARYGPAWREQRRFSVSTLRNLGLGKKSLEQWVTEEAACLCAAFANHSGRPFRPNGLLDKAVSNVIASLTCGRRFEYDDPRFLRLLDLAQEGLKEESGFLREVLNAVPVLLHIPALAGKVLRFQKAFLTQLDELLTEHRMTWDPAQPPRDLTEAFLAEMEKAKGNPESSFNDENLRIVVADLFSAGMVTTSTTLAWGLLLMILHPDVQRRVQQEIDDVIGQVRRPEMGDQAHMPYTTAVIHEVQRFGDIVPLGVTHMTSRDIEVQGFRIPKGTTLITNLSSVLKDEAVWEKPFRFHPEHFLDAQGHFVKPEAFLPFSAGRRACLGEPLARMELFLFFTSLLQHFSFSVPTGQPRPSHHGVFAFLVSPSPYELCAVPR
- assayProcedure: Inhibition of CYP2D6

Br.CC(=O)SCC(=O)c1ccc(NS(=O)(=O)c2ccc(OCCCN(C)C)cc2)nc1 ... > 50 µM

Please find the next molecule below.
What EC50 appears in the records for this molecule with Cytochrome P450 2D6 (Homo sapiens, UniProt P10635)? CC(=O)SCC(=O)c1ccc(NS(=O)(=O)c2ccc3c(c2)COOC3)nc1
> 50 µM

* * *

- testSystem: Histone deacetylase
- assayProcedure: Inhibition of HDAC in human HeLa cells assessed as histone H3 hyperacetylation
- Assay type: cell-based
What EC50 was measured for each of the following?
Numbers only, in nM.

Worked set:
CC(=O)SCC(=O)c1ccc(NS(=O)(=O)c2ccc(OC3CCCN(C)C3)cc2)nc1 (stereo unspecified) ... 110
CC(=O)SCC(=O)c1ccc(NS(=O)(=O)c2ccc(OCCCN3CCCC3)cc2)nc1 ... 61
CC(=O)SCC(=O)c1ccc(NS(=O)(=O)c2ccc(OCCCO)cc2)nc1 ... 110
CC(=O)SCC(=O)c1ccc(NS(=O)(=O)c2ccc(OCCc3ccccn3)cc2)nc1 ... 190
COc1cccc(S(=O)(=O)Nc2ccc(C(=O)CSC(C)=O)cn2)c1 ... 190

Next item in the queue.
Need EC50, item COc1ccc(S(=O)(=O)Nc2ccc(C(=O)CSC(C)=O)cn2)cc1
29

* * *

- testSystem: UniProt:P33261
- Sequence (P33261 whole entry): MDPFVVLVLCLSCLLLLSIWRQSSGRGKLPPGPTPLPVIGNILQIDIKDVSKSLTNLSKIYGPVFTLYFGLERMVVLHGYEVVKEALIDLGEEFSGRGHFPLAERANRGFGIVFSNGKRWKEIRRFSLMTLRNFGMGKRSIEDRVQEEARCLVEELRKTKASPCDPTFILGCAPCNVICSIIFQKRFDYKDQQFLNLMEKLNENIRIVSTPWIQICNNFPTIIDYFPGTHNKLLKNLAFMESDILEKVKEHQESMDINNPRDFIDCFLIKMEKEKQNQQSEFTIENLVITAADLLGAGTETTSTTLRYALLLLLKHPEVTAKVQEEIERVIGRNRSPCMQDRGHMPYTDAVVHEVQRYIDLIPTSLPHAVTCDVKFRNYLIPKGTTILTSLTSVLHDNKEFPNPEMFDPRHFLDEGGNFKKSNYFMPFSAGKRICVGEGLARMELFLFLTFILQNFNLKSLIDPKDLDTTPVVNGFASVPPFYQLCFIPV
- assayProcedure: Inhibition of CYP2C19
- Type: ADME
measuredQuantity: EC50

Br.CC(=O)SCC(=O)c1ccc(NS(=O)(=O)c2ccc(OCCCN(C)C)cc2)nc1 ... > 50 µM

// moving on: another record for EC50
Can you share its EC50? I mean this compound: CC(=O)SCC(=O)c1ccc(NS(=O)(=O)c2ccc3c(c2)COOC3)nc1
> 50 µM

* * *

- testSystem: Cytochrome P450 1A2 (Homo sapiens, UniProt P05177)
- Sequence (P05177 whole entry): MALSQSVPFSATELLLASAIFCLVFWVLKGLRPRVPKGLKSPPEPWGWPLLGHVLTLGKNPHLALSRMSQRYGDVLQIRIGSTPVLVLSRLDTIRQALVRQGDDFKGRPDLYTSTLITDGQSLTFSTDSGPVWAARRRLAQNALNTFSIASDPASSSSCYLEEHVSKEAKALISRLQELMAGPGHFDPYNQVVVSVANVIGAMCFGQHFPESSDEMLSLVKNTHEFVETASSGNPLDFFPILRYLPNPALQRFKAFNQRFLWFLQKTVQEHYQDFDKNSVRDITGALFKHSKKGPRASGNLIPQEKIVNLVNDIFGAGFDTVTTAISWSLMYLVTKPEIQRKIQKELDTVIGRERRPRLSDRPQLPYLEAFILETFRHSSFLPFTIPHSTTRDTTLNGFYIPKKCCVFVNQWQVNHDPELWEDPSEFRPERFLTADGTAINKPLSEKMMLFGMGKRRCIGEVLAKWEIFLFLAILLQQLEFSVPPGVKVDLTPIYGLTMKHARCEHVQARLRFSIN
- assayProcedure: Inhibition of CYP1A2
Give measured EC50 for each item. Keep answers brief.

CC(=O)SCC(=O)c1ccc(NS(=O)(=O)c2ccc3c(c2)COOC3)nc1 ... > 50 µM

Now examine the next entry.
Any idea what EC50 was measured for Br.CC(=O)SCC(=O)c1ccc(NS(=O)(=O)c2ccc(OCCCN(C)C)cc2)nc1 ?
> 50 µM

* * *

- assayProcedure: Aqueous solubility of the compound
- Format: physicochemical
- experimentalSetup: buffer
measuredQuantity: solubility (µg/mL)
Numbers only, in µg/mL.

Br.CC(=O)SCC(=O)c1ccc(NS(=O)(=O)c2ccc(OCCCN(C)C)cc2)nc1 ... 10000

solubility lookup needed for CC(=O)SCC(=O)c1ccc(NS(=O)(=O)c2ccc3c(c2)COOC3)nc1 , thanks.
200

* * *

- testSystem: Histone deacetylase
- assayProcedure: Inhibition of HDAC in human HeLa cells assessed as histone H3 hyperacetylation
- Assay type: cell-based
Friendly reminder: EC50 below 40 nM is fulfilled, at or above is not fulfilled.

A selection of reference data follows.
COCCCOc1ccc(S(=O)(=O)Nc2ccc(C(=O)CSC(C)=O)cn2)cc1 ... not fulfilled
CC(=O)SCC(=O)c1ccc(NS(=O)(=O)c2ccc(OCc3ccccn3)cc2)nc1 ... not fulfilled
CC(=O)SCC(=O)c1ccc(NS(=O)(=O)c2ccc(OCCCc3ccccn3)cc2)nc1 ... not fulfilled
CC(=O)SCC(=O)c1ccc(NS(=O)(=O)c2ccc(OCCCCN(C)C)cc2)nc1 ... fulfilled
CC(=O)SCC(=O)c1ccc(NS(=O)(=O)c2ccc(OCCCN3CCOCC3)cc2)nc1 ... not fulfilled
CC(=O)SCC(=O)c1ccc(NS(=O)(=O)c2ccc(OCCN(C)C)cc2)nc1 ... not fulfilled
CC(=O)SCC(=O)c1ccc(NS(=O)(=O)c2ccc3c(c2)COOC3)nc1 ... fulfilled
CC(=O)SCC(=O)c1ccc(NS(=O)(=O)c2ccc(OCCCN3CCCCC3)cc2)nc1 ... not fulfilled

Is 40 nM strictly greater than the compound's reported EC50? compound: CC(=O)SCC(=O)c1ccc(NS(=O)(=O)c2ccc(OC3CCN(C)CC3)cc2)nc1
not fulfilled

CC(=O)SCC(=O)c1ccc(NS(=O)(=O)c2ccc(OCCCN(C)C)cc2)nc1 , same question.
not fulfilled

* * *

- testSystem: Cytochrome P450 3A4 (Homo sapiens, UniProt P08684)
- Sequence (P08684 whole entry): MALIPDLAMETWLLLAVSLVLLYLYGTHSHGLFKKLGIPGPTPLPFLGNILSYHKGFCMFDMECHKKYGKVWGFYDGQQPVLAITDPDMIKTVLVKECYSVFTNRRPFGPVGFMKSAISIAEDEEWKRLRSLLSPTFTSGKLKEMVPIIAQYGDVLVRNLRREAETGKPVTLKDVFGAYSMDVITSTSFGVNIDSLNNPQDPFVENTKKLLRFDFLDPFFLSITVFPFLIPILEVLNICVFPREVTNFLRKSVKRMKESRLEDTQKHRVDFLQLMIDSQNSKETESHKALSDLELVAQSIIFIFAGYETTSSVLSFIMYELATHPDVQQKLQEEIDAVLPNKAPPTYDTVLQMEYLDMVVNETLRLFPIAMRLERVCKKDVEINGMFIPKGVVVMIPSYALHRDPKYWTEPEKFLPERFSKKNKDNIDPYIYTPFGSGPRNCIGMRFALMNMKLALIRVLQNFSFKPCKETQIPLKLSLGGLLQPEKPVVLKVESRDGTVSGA
- assayProcedure: Inhibition of CYP3A4
pEC50: −log10 of the molar value.
measuredQuantity: pEC50

Any idea what pEC50 was measured for CC(=O)SCC(=O)c1ccc(NS(=O)(=O)c2ccc3c(c2)COOC3)nc1 ?
< 4.30

* * *

- testSystem: Voltage-gated inwardly rectifying potassium channel KCNH2 (Homo sapiens)
- Sequence (Q12809 whole entry): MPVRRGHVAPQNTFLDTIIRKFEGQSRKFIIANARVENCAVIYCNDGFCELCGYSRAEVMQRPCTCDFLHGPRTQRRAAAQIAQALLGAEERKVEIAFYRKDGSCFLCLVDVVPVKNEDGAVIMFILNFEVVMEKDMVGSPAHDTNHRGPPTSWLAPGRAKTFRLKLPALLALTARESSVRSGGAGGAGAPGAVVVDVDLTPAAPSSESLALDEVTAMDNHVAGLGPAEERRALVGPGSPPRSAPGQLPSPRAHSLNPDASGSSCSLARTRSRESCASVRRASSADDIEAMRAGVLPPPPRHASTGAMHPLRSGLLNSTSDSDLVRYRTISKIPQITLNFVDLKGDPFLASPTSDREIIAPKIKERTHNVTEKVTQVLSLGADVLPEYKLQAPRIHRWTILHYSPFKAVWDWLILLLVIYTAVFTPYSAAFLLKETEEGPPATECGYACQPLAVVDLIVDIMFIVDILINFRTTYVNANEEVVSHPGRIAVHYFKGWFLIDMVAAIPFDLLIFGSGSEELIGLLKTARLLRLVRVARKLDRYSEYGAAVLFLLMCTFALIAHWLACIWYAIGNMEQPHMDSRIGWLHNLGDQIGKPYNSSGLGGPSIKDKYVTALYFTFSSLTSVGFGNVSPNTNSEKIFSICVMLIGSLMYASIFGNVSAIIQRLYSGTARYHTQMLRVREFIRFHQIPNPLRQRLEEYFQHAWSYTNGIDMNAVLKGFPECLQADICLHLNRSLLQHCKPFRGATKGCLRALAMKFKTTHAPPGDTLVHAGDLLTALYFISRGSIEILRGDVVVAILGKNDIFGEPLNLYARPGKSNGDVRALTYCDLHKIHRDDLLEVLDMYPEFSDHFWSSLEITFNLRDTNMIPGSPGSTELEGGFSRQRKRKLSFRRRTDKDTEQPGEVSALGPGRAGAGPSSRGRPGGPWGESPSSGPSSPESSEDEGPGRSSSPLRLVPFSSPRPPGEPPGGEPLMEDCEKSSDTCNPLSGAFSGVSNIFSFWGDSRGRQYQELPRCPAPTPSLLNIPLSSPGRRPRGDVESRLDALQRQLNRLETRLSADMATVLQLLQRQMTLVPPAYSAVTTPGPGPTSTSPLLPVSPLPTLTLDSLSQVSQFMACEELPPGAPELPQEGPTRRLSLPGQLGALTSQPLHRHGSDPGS
- assayProcedure: Inhibition of human ERG by patch-clamp assay
pEC50: −log10 of the molar value.
measuredQuantity: pEC50

Br.CC(=O)SCC(=O)c1ccc(NS(=O)(=O)c2ccc(OCCCN(C)C)cc2)nc1 ... < 4.52

We next turn to a different compound, shown below.
Recall the recorded pEC50 for CC(=O)SCC(=O)c1ccc(NS(=O)(=O)c2ccc3c(c2)COOC3)nc1 with Voltage-gated inwardly rectifying potassium channel KCNH2 (Homo sapiens) and state it.
< 4.52

* * *

- Tested on: SK-OV-3
- assayProcedure: Cytotoxicity against human SKOV3 cells
- Type: functional, cell-based
measuredQuantity: pEC50
One number for each entry, as −log10 of the molar value.

Which value of pEC50 has been reported for CC(=O)SCC(=O)c1ccc(NS(=O)(=O)c2ccc(OCCCN(C)C)cc2)nc1 in the records?
6.12

* * *

- assayProcedure: Cytotoxicity against human MJ cells
- Format: functional, cell-based
measuredQuantity: EC50 (nM)
Numbers only, in nM.

Param item = CC(=O)SCC(=O)c1ccc(NS(=O)(=O)c2ccc(OCCCN(C)C)cc2)nc1 ; retrieve measured EC50.
170
